These data points were gathered from patent US9512220.

Molecular target: T1, Angiopoietin 2 (UniProt O15123)
T1 chain: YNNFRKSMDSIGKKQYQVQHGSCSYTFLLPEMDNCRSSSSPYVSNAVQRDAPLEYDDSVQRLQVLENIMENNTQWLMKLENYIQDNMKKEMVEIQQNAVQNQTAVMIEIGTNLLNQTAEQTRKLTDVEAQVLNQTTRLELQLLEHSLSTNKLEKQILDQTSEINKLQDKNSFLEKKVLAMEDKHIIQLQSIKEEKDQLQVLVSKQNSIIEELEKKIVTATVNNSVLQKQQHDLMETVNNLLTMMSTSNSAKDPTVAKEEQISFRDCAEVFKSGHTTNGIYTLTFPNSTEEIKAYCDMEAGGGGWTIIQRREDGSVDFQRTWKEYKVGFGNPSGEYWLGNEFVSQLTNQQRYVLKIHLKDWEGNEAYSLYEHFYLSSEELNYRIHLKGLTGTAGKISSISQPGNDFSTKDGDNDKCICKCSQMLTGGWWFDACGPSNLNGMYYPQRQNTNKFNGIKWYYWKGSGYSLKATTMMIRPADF
Assay: competition, blocking Tie-2
The label MET is reserved for IC50 strictly under 0.2 nM; NOT MET covers values equal to or above it.

Is IC50 of HC12/LC12 (antibody, V domains shown) VH: EVQLLESGGGLVQPGGSLRLSCAASGFTFSNYAMSWVRQAPGKGLEWVSVISPGSGNTYYADSVKGRFTISRDNSKNTLYLQMNSLRAEDTAVYYCAKGALKCRHRSCSSYNAMDVWGQGTLVTVSS VL: QSVLTQPPSASGTPGQRVTISCTGSSSNIGNNDVSWYQQLPGTAPKLLIYDNNHRPSGVPDRFSGSKSGTSASLAISGLRSEDEADYYCGTWDASLNGYVFGGGTKLTVL strictly below 0.2 nM?
MET

Is IC50 of HC4/LC4 (antibody, V domains shown) VH: EVQLLESGGGLVQPGGSLRLSCAASGFTFSNYAMSWVRQAPGKGLEWVSAISHGGSSKYYADSVKGRFTISRDNSKNTLYLQMNSLRAEDTAVYYCARDRTASLLDGFDYWGQGTLVTVSS VL: QSVLTQPPSASGTPGQRVTISCSGSSSNIGNNYVNWYQQLPGTAPKLLIYADSNRPSGVPDRFSGSKSGTSASLAISGLRSEDEADYYCGTWDASLSGYVFGGGTKLTVL strictly below 0.2 nM?
NOT MET

Is IC50 of HC14/LC14 (antibody, V domains shown) VH: EVQLLESGGGLVQPGGSLGLSCAASGFTLSNYDMSWVRQAPGKGLEWVSWISPDSSSTYYADSVKGRFTISRDNSKNTLYLQMNSLRAEDTAVYYCARSVMPFDYWGQGTLVTVSS VL: QSVLTQPPSASGTPGQRVTISCSGSSSNIGSNAVYWYQQLPGTAPKLLIYDDSKRPSGVPDRFSGSKSGTSASLAIGGLRSEDEADYYCGAWDDSLSAYVFGGGTKLTVL strictly below 0.2 nM?
MET

Is IC50 of HC16/LC16 (antibody, V domains shown) VH: EVQLLESGGGLVQPGGSLRLSCAASGFTFSDYYMSWVRQAPGKGLEWVSSISYDDGSRKYYADSGKRSVTISRDNSKNTLYLQMNSLRAEDTAVYYCARDRSTLRLDSFDYWGQGTLVTVSS VL: QSVLTQPPSASGTPGRRVTISCSGSSPNIGNNTVNWYQQLPGTAPKLLIYSDSHRPSGVPDRFSGSKSGTSASLAISGLRSEDEADYYCGAWDYSLNAYVFGGGTKLTVL strictly below 0.2 nM?
NOT MET
